target: Akt-S473E; assay: ELISA with immobilized Akt-S473E, relative affinity of biotinylated ligands; assay type: binding, H. sapiens; conditions: read-out: binding affinity for Akt
Sequence (P31749 144-449 limits assumed, stated change not applied): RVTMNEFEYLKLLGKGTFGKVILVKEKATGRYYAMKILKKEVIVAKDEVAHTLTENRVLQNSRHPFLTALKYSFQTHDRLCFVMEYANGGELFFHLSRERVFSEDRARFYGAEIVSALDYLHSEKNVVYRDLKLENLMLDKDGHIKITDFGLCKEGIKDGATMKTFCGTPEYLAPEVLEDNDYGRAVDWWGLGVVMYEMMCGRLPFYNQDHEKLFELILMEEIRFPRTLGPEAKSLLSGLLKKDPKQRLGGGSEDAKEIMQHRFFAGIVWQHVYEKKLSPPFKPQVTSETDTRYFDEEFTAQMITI
MEASURED_METRIC: Kd

Lab book: Kd of Az8-VFYRLGY-CONH2 [anchor ligand] noted as > 25 µM
